# Assayed System: murine class II MHC allele E^k on CH27 B cell lymphoma antigen presenting cells (murine)
# Measurement Notes: cell-based or functional assay
Test Readout: T cell proliferative response (HT-2 [3H]TdR uptake) at 47 nM

Known T cell proliferative response (HT-2 [3H]TdR uptake) at 47 nM results, listed for orientation:
In [3]: df
Out[3]:
                                     binder                 result
0  Ac-LRMKLPKSIAYLKQATAK-NH2 [Hybrid 4, Ac-LRMKLPKSIAYLKQATAK-NH2]  19.5 thousands of cpm
1  Ac-LRMKLPKSAKPVSKIAYLKQATAK-NH2 [Hybrid 6, Ac-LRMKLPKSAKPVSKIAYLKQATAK-NH2]  25.3 thousands of cpm
2  Ac-IAYLKQATAK-NH2 [Hybrid 1, Ac-IAYLKQATAK-NH2 (antigenic epitope PGCC 95-104 without Ii-Key)]  29.5 thousands of cpm

Data point: Ac-LRMKLPKSAKPIAYLKQATAK-NH2 [Hybrid 5, Ac-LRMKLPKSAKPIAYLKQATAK-NH2] ; T cell proliferative response (HT-2 [3H]TdR uptake) at 47 nM = 26.2 thousands of cpm

Origin of the recorded values: patent US20100310591A1
